# Assay system: CXCR4 (Homo sapiens, UniProt P61073)
# Sequence (P61073 whole entry): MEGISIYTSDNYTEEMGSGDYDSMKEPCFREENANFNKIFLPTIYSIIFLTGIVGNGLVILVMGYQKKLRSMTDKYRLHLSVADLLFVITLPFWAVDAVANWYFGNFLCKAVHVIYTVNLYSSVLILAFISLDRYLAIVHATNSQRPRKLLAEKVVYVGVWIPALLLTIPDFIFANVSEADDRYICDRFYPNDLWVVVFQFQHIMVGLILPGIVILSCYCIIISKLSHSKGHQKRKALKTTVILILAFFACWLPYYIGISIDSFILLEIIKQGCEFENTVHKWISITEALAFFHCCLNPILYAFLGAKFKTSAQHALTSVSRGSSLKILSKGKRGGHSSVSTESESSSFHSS
# Protocol: Chemotaxis assay, effect on SDF1-a (CXCL12) induced migration of CCRF-CEM cells
# Assay type: cell-based
# Design: a human T-cell ALL line that endogenously expresses CXCR4; endogenous in cells; host or cells: CCRF-CEM (human T-cell ALL line)
# Condition details: Table 21, i4 loop; CEM cells; conc 1.0 uM
Can you tell me AUC (% of vehicle) for the items I'm about to list?

// below: answered substances
Substance | Assay system | AUC (% of vehicle)
115: CXCR4 i4 domain compound (GAKFKTSAQHALTSVSRGSSLK) [Compound 115] | CXCR4 (Homo sapiens, UniProt P61073) | 77.47 % of Vehicle
108: CXCR4 i4 domain compound (GAKFKTSAQHALTSVSRGSSLKILSKGKRG) [Compound 108] | CXCR4 (Homo sapiens, UniProt P61073) | 89.47 % of Vehicle
110: CXCR4 i4 domain compound (GAKFKTSAQHALTSVSRGSSLKILSKGKRGGHSCFH) [Compound 110] | CXCR4 (Homo sapiens, UniProt P61073) | 40.98 % of Vehicle
114: CXCR4 i4 domain compound (GAKFKTSAQHALTSVSRGSSLKILSK) [Compound 114] | CXCR4 (Homo sapiens, UniProt P61073) | 34.22 % of Vehicle
109: CXCR4 i4 domain compound (GAKFKTSAQHALTSVSRGSSLKILSKGKRGGHSSVST) [Compound 109] | CXCR4 (Homo sapiens, UniProt P61073) | 49.31 % of Vehicle

Determine from records and report AUC (% of vehicle) for 116: CXCR4 i4 domain compound (GAKFKTSAQHALTSVR) [Compound 116]
65.28 % of Vehicle

====

# Assay system: CXCR4 (Homo sapiens)
# Protocol: Chemotaxis assay, effect on SDF1-a (CXCL12) induced migration of CCRF-CEM cells
# Type: cell-based
# Set-up: a human T-cell ALL line that endogenously expresses CXCR4; endogenous in cells; host or cells: CCRF-CEM (human T-cell ALL line)
# Condition details: CCRF-CEM, Table 18, i1 loop; CEM cells; drug conc 1.0 uM; read-out: AUC (% of)
Square brackets hold non-standard residues; d marks the D form. Peptide text beside a SMILES is read from it. * marks the point of attachment. ξ: configuration not given here. Biotin = O=C1N[C@H]2[C@H](CS[C@H]2CCCCC(=O)*)N1; ξGly(nC16H33) = CCCCCCCCCCCCCCCCC(N)C(=O)O; Palmitoyl = CCCCCCCCCCCCCCCC(=O)*
Parameter measured: activity at 1 µM (%)
One number for each entry, in %.

Compound | Parameter measured | Test result
CCCCCCCCCCCCCCCC(=O)N[C@@H](CCCCN)C(=O)N[C@@H](CCCCN)C(=O)N[C@@H](CC(C)C)C(=O)N[C@@H](CCCNC(=N)N)C(=O)N[C@@H](CO)C(=O)N[C@@H](CCSC)C(=O)N[C@H](C(=O)N[C@@H](CC(=O)O)C(=O)N[C@@H](CCCCN)C(=O)N[C@@H](Cc1ccc(O)cc1)C(N)=O)[C@@H](C)O [Compound 46] (Palmitoyl-KKLRSMTDKY-NH2) | activity at 1 µM | 69.7
CCCCCCCCCCCCCCCCC(NC(=O)CCCC[C@@H]1SC[C@@H]2NC(=O)N[C@@H]21)C(=O)N[C@@H](CCSC)C(=O)NCC(=O)N[C@@H](Cc1ccc(O)cc1)C(=O)N[C@@H](CCC(N)=O)C(=O)N[C@@H](CCCCN)C(=O)N[C@@H](CCCCN)C(=O)N[C@@H](CC(C)C)C(=O)N[C@@H](CCCNC(=N)N)C(=O)N[C@@H](CO)C(=O)N[C@@H](CCSC)C(=O)N[C@H](C(=O)N[C@@H](CC(=O)O)C(N)=O)[C@@H](C)O (stereo partly drawn) [Compound 33] (Biotin-[ξGly(nC16H33)]MGYQKKLRSMTD-NH2) | activity at 1 µM | 54.8

Determine from records and report activity at 1 µM for CCCCCCCCCCCCCCCC(=O)N[C@H](C(=O)N[C@@H](CCSC)C(=O)NCC(=O)N[C@@H](Cc1ccc(O)cc1)C(=O)N[C@@H](CCC(N)=O)C(=O)N[C@@H](CCCCN)C(=O)N[C@@H](CCCCN)C(=O)N[C@@H](CC(C)C)C(=O)N[C@@H](CCCNC(=N)N)C(=O)N[C@@H](CO)C(=O)N[C@@H](CCSC)C(=O)N[C@H](C(=O)N[C@@H](CC(=O)O)C(N)=O)[C@@H](C)O)C(C)C [Compound 35] (Palmitoyl-VMGYQKKLRSMTD-NH2)
57.9

====

# Assay system: CXCR4 (Homo sapiens)
# Protocol: Chemotaxis assay using SUP B-15 cells
# Format: cell-based
# Parameters: A similar procedure was followed for chemotaxis using SUP B-15 cells; endogenous in cells; host or cells: SUP B-15 cells
# Condition details: SUP-B15; Table 18, i1 loop; SUP B-15 cells; drug conc 1.0 uM; read-out: Max (% of)
Peptide text beside a SMILES is read from it. * marks the point of attachment. Palmitoyl = CCCCCCCCCCCCCCCC(=O)*
Parameter measured: activity at 1 µM (%)
One number for each entry, in %.

Compound | Assay system | Quantity unit | activity at 1 µM
CCCCCCCCCCCCCCCC(=O)N[C@@H](CCCCN)C(=O)N[C@@H](CCCCN)C(=O)N[C@@H](CC(C)C)C(=O)N[C@@H](CCCNC(=N)N)C(=O)N[C@@H](CO)C(=O)N[C@@H](CCSC)C(=O)N[C@H](C(=O)N[C@@H](CC(=O)O)C(=O)N[C@@H](CCCCN)C(=O)N[C@@H](Cc1ccc(O)cc1)C(=O)N[C@@H](CCCNC(=N)N)C(=O)N[C@@H](CC(C)C)C(N)=O)[C@@H](C)O [Compound 44, Pal-KKLRSMTDKYRL-amide] (Palmitoyl-KKLRSMTDKYRL-NH2) | CXCR4 (Homo sapiens) | % | 31.5
CCCCCCCCCCCCCCCC(=O)N[C@@H](CCSC)C(=O)NCC(=O)N[C@@H](Cc1ccc(O)cc1)C(=O)N[C@@H](CCC(N)=O)C(=O)N[C@@H](CCCCN)C(=O)N[C@@H](CCCCN)C(=O)N[C@@H](CC(C)C)C(=O)N[C@@H](CCCNC(=N)N)C(=O)N[C@@H](CO)C(=O)N[C@@H](CCSC)C(=O)N[C@H](C(=O)N[C@@H](CC(=O)O)C(=O)N[C@@H](CCCCN)C(=O)N[C@@H](Cc1ccc(O)cc1)C(N)=O)[C@@H](C)O [Compound 37] (Palmitoyl-MGYQKKLRSMTDKY-NH2) | CXCR4 (Homo sapiens) | % | 91.1

Field: next compound
Tell me activity at 1 µM reported for CCCCCCCCCCCCCCCC(=O)N[C@H](C(=O)N[C@@H](CCSC)C(=O)NCC(=O)N[C@@H](Cc1ccc(O)cc1)C(=O)N[C@@H](CCC(N)=O)C(=O)N[C@@H](CCCCN)C(=O)N[C@@H](CCCCN)C(=O)N[C@@H](CC(C)C)C(=O)N[C@@H](CCCNC(=N)N)C(=O)N[C@@H](CO)C(=O)N[C@@H](CCSC)C(=O)N[C@H](C(=O)N[C@@H](CC(=O)O)C(N)=O)[C@@H](C)O)C(C)C [Compound 35] (Palmitoyl-VMGYQKKLRSMTD-NH2)
49.3

====

# Assay system: CXCR4 (Homo sapiens)
# Protocol: Chemotaxis assay, effect on SDF1-a (CXCL12) induced migration of CCRF-CEM cells
# Format: cell-based
# Set-up: a human T-cell ALL line that endogenously expresses CXCR4; endogenous in cells; host or cells: CCRF-CEM (human T-cell ALL line)
# Condition details: Table 20, i3 loop; CEM cells; conc 1.0 uM
Ends that are not written are not given here.
Give AUC (% of vehicle) for every item shown.

For orientation, consider the following solved cases.
Substance | AUC (% of vehicle)
89: CXCR4 i3 loop compound (KLSHSKGHQKRKALKTTVIL) [Compound 89] | 37.55 % of vehicle
96: CXCR4 i3 loop compound (SHSKGHQKRKALK; also: lipid Pal, place not given here) [Compound 96] | 34.22 % of vehicle
101: CXCR4 i3 loop compound (SKLSHSKGHQKRKALK) [Compound 101] | 75.55 % of vehicle
103: CXCR4 i3 loop compound (IIISKLSHSKGHQKRKALKT) [Compound 103] | 26.32 % of vehicle
102: CXCR4 i3 loop compound (IIISKLSHSKGHQKRKALKT) [Compound 102] | 0 % of vehicle

# context switch: different substance, same AUC (% of vehicle)
Hello, please tell me recorded AUC (% of vehicle) for this one: 104: CXCR4 i3 loop compound (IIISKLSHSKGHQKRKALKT) [Compound 104]
36.4 % of vehicle
